Test system: Salmonella enterica serovar Typhimurium TA100
TEST_SUMMARY: Salmonella/microsome assay, TA100
CONDITION_SET: −S9, 3 µM
MEASUREMENT_TYPE: revertant His+ colonies TA100
Respond with the number and no other words.

> print(dat)
                                   molecule  quantitative.result
1  CC(=O)Nc1ccc(C)cc1C(F)(F)C(=O)NCC[C@@H]1C[C@H](CC(=O)OC(C)(C)C)OC(C)(C)O1 [Compound 13b]                  145
2  CC(=O)Nc1ccccc1C(F)(F)C(=O)NCC[C@@H]1C[C@H](CC(=O)OC(C)(C)C)OC(C)(C)O1 [Compound 13a]                  117
3  CC(=O)Nc1ccc(Br)cc1C(F)(F)C(=O)NCC[C@@H]1C[C@H](CC(=O)OC(C)(C)C)OC(C)(C)O1 [Compound 13d]                   99

Recorded revertant His+ colonies TA100 of CC(=O)Nc1ccc(Cl)cc1C(F)(F)C(=O)NCC[C@@H]1C[C@H](CC(=O)OC(C)(C)C)OC(C)(C)O1 [Compound 13c] , please.
135

* * *

Tested on: Salmonella enterica serovar Typhimurium TA98
TEST_SUMMARY: Salmonella/microsome assay, TA98
CONDITION_SET: −S9, 1500 µM
Listed below: revertant His+ colonies TA98 values for each entry.
Write the value as a bare number.

These solved cases illustrate the format of a correct answer.
> print(dat)
                                   compound  quantitative.result
1  CC(=O)Nc1ccc(C)cc1C(F)(F)C(=O)NCC[C@@H]1C[C@H](CC(=O)OC(C)(C)C)OC(C)(C)O1 [Compound 13b]                   26
2  CC(=O)Nc1ccc(Cl)cc1C(F)(F)C(=O)NCC[C@@H]1C[C@H](CC(=O)OC(C)(C)C)OC(C)(C)O1 [Compound 13c]                   23

Moving on to another compound below.
Look at this compound and give its reported revertant His+ colonies TA98. CC(=O)Nc1ccccc1C(F)(F)C(=O)NCC[C@@H]1C[C@H](CC(=O)OC(C)(C)C)OC(C)(C)O1 [Compound 13a]
61

* * *

Test system: Salmonella enterica serovar Typhimurium TA98
TEST_SUMMARY: Salmonella/microsome assay, TA98
CONDITION_SET: +S9, 3 µM
MEASUREMENT_TYPE: revertant His+ colonies TA98
A bare number is all that is needed in reply.

What measured revertant His+ colonies TA98 goes with CC(=O)Nc1ccc(Br)cc1C(F)(F)C(=O)NCC[C@@H]1C[C@H](CC(=O)OC(C)(C)C)OC(C)(C)O1 [Compound 13d] ?
28

Please report the recorded revertant His+ colonies TA98 for CC(=O)Nc1ccc(C)cc1C(F)(F)C(=O)NCC[C@@H]1C[C@H](CC(=O)OC(C)(C)C)OC(C)(C)O1 [Compound 13b] .
27

revertant His+ colonies TA98 lookup needed for CC(=O)Nc1ccccc1C(F)(F)C(=O)NCC[C@@H]1C[C@H](CC(=O)OC(C)(C)C)OC(C)(C)O1 [Compound 13a] , thanks.
25

Value lookup for revertant His+ colonies TA98; key = CC(=O)Nc1ccc(Cl)cc1C(F)(F)C(=O)NCC[C@@H]1C[C@H](CC(=O)OC(C)(C)C)OC(C)(C)O1 [Compound 13c]
34

* * *

System: Salmonella enterica serovar Typhimurium TA100
TEST_SUMMARY: Salmonella/microsome assay, TA100
CONDITION_SET: +S9, 300 µM
MEASUREMENT_TYPE: revertant His+ colonies TA100
Please give only the number in your answer, with no unit.

Solved cases (3 shown):
> print(dat)
                                   molecule               measurement.type  quantitative.result
1  CC(=O)Nc1ccccc1C(F)(F)C(=O)NCC[C@@H]1C[C@H](CC(=O)OC(C)(C)C)OC(C)(C)O1 [Compound 13a]  revertant His+ colonies TA100                  270
2  CC(=O)Nc1ccc(Cl)cc1C(F)(F)C(=O)NCC[C@@H]1C[C@H](CC(=O)OC(C)(C)C)OC(C)(C)O1 [Compound 13c]  revertant His+ colonies TA100                  286
3  CC(=O)Nc1ccc(C)cc1C(F)(F)C(=O)NCC[C@@H]1C[C@H](CC(=O)OC(C)(C)C)OC(C)(C)O1 [Compound 13b]  revertant His+ colonies TA100                  306

Look up revertant His+ colonies TA100: CC(=O)Nc1ccc(Br)cc1C(F)(F)C(=O)NCC[C@@H]1C[C@H](CC(=O)OC(C)(C)C)OC(C)(C)O1 [Compound 13d]
181

* * *

Test system: Salmonella enterica serovar Typhimurium TA98
TEST_SUMMARY: Salmonella/microsome assay, TA98
CONDITION_SET: −S9, 3 µM
Experimental: Salmonella enterica serovar Typhimurium (S. typhimurium) strains TA97, TA98, TA100, TA104 and TA102 from the authors’ stock were used as described in the mutagenicity assay. To determine the cytotoxic effects, after 30 min pre-incubation, the assay mixtures were diluted in 0.9% NaCl (w/v) to obtain a suspension containing 2 × 10^2 cells/mL. […] The plates were then incubated at 37 °C for 24 h and the colonies counted. All the experiments were conducted in triplicate and were repeated at least twice. […]
This listing pairs compounds with measured revertant His+ colonies TA98.
Answer with a bare number; do not write a unit.

> print(dat)
                                   compound                              study.target  quantitative.result
1  CC(=O)Nc1ccc(C)cc1C(F)(F)C(=O)NCC[C@@H]1C[C@H](CC(=O)OC(C)(C)C)OC(C)(C)O1 [Compound 13b]  Salmonella enterica serovar Typhimurium TA98                   18
2  CC(=O)Nc1ccc(Br)cc1C(F)(F)C(=O)NCC[C@@H]1C[C@H](CC(=O)OC(C)(C)C)OC(C)(C)O1 [Compound 13d]  Salmonella enterica serovar Typhimurium TA98                   22
3  CC(=O)Nc1ccccc1C(F)(F)C(=O)NCC[C@@H]1C[C@H](CC(=O)OC(C)(C)C)OC(C)(C)O1 [Compound 13a]  Salmonella enterica serovar Typhimurium TA98                   24

Continue with the next compound.
// lookup revertant His+ colonies TA98 for CC(=O)Nc1ccc(Cl)cc1C(F)(F)C(=O)NCC[C@@H]1C[C@H](CC(=O)OC(C)(C)C)OC(C)(C)O1 [Compound 13c]
21

* * *

TEST_SUMMARY: in vitro
Format: cell-based
CONDITION_SET: human
MEASUREMENT_TYPE: CC50 at 24 h

Known CC50 at 24 h results, listed for orientation:
> print(dat)
                                   compound  measurement.type     result
1  CC(=O)Nc1ccc(C)cc1C(F)(F)C(=O)NCC[C@@H]1C[C@H](CC(=O)OC(C)(C)C)OC(C)(C)O1 [Compound 13b]      CC50 at 24 h  > 1000 µM
2  CC(=O)Nc1ccccc1C(F)(F)C(=O)NCC[C@@H](O)C[C@@H](O)CC(=O)O [Compound 14a]      CC50 at 24 h   > 488 µM
3  CC(=O)Nc1ccc(C)cc1C(F)(F)C(=O)NCC[C@@H](O)C[C@@H](O)CC(=O)O [Compound 14b]      CC50 at 24 h   > 472 µM
4  CC(=O)Nc1ccc(Br)cc1C(F)(F)C(=O)NCC[C@@H]1C[C@H](CC(=O)OC(C)(C)C)OC(C)(C)O1 [Compound 13d]      CC50 at 24 h  > 1000 µM

Look at this compound and give its reported CC50 at 24 h. CC(=O)Nc1ccc(Br)cc1C(F)(F)C(=O)NCC[C@@H](O)C[C@@H](O)CC(=O)O [Compound 14d]
> 409 µM

Entry CC(=O)Nc1ccc(Cl)cc1C(F)(F)C(=O)NCC[C@@H]1C[C@H](CC(=O)OC(C)(C)C)OC(C)(C)O1 [Compound 13c] : reported CC50 at 24 h = ?
> 1000 µM

Data request, read-out CC50 at 24 h, for CC(=O)Nc1ccc(Cl)cc1C(F)(F)C(=O)NCC[C@@H](O)C[C@@H](O)CC(=O)O [Compound 14c]
> 450 µM

For CC(=O)Nc1ccccc1C(F)(F)C(=O)NCC[C@@H]1C[C@H](CC(=O)OC(C)(C)C)OC(C)(C)O1 [Compound 13a] , what is its reported CC50 at 24 h?
> 1000 µM

* * *

System: Salmonella enterica serovar Typhimurium TA104
TEST_SUMMARY: Salmonella/microsome assay, TA104
CONDITION_SET: −S9, 15 µM
Attribute: revertant His+ colonies TA104
Lab note: jot down the number only; don't add units.

> print(dat)
                                   compound                              study.target  quantitative.result
1  CC(=O)Nc1ccccc1C(F)(F)C(=O)NCC[C@@H]1C[C@H](CC(=O)OC(C)(C)C)OC(C)(C)O1 [Compound 13a]  Salmonella enterica serovar Typhimurium TA104                  307
2  CC(=O)Nc1ccc(Br)cc1C(F)(F)C(=O)NCC[C@@H]1C[C@H](CC(=O)OC(C)(C)C)OC(C)(C)O1 [Compound 13d]  Salmonella enterica serovar Typhimurium TA104                  515
3  CC(=O)Nc1ccc(C)cc1C(F)(F)C(=O)NCC[C@@H]1C[C@H](CC(=O)OC(C)(C)C)OC(C)(C)O1 [Compound 13b]  Salmonella enterica serovar Typhimurium TA104                  267

Query revertant His+ colonies TA104 on Salmonella enterica serovar Typhimurium TA104 for CC(=O)Nc1ccc(Cl)cc1C(F)(F)C(=O)NCC[C@@H]1C[C@H](CC(=O)OC(C)(C)C)OC(C)(C)O1 [Compound 13c]
199
